System: SK-MEL-5 melanoma
test details: NCI-60 one-dose screen, 48 h
condition context: 10 µM unless noted
The panel holds about 83,000 compounds, 20% with a hit somewhere; the sample as a whole holds those more often. The source made the active and inactive calls. Rule for the calls: active = growth percent below 10; inactive = the rest.
Possible outcomes: active, inactive

> print(dat)
                                    compound     class
 1                Cc1ccc(N2CCN(CCC#N)CC2)cc1  inactive
 2  C[N+]1(C)CCCC1c1cccnc1 (stereo not drawn)  inactive
 3  CC12CCC3C(CCC4CC(O)CCC43C)C1CCC2=O (stereo not drawn)  inactive
 4                               CCCCOC(N)=O  inactive
 5  O=C(NC(Cl)=C(Cl)Cl)P(=O)(c1ccccc1)c1ccccc1  inactive
 6                  O=C(O)c1ccccc1N(CCO)CCCl  inactive
 7                         N#CCC(=O)c1ccccc1  inactive
 8  CCC(=O)C(CC(C)N1CCCCCC1)(c1ccccc1)c1ccccc1 (stereo not drawn)  inactive
 9  CC[C@H](C)[C@H](NC(=O)c1cnccn1)C(=O)N(C)[C@H](C[C@@H](OC(C)=O)c1nc(C(=O)N[C@@H](Cc2ccccc2)C[C@H](C)C(=O)OC)cs1)C(C)C    active
10  C/C(=C\c1ccn(-c2ccc(N)cc2F)n1)[C@@H]1C[C@@H]2O[C@]2(C)CCC[C@H](C)[C@H](O)[C@@H](C)C(=O)C(C)(C)[C@@H](O)CC(=O)O1    active
11  O=P1(N(CCCl)CCCl)NCCCO1 (stereo not drawn)  inactive
12  Cc1cc(NC(=O)NCCCOc2ccc(N3C(N)=NC(N)=NC3(C)C)cc2Cl)ccc1S(=O)(=O)F  inactive
13  COc1ccc(N(CC(=O)NCCC[Te]c2ccccc2)C(=O)c2ccccc2)cc1  inactive
14                               O=NN1CCCCC1  inactive
15    O=[N+]([O-])c1ccc2scc3c4ccccc4nc-3c2c1    active
16               Nc1c(Cl)c(Cl)nc(C(=O)O)c1Cl  inactive
17  CC/C(=C(\c1ccc(OCCN2CCOCC2)cc1)c1ccc(OC(=O)Cc2ccccc2)cc1)c1ccc(Cl)cc1  inactive
18                CC(=O)c1cccc(S(=O)(=O)F)c1  inactive
19  C[C@]12CCc3sc(Nc4ccc(F)cc4F)nc3C1=CC[C@@H]1[C@@H]2CC[C@]2(C)C(=O)CC[C@@H]12  inactive
20  CCC1(NC(=O)c2cc(F)c(F)c(F)c2F)C(=O)NC(=O)N(C(C)C)C1=O (stereo not drawn)  inactive
21        [N-]=[N+]=CC(=O)CCC(=O)C=[N+]=[N-]  inactive
22  C[C@]12CCC(=O)C[C@@H]1CC[C@@H]1[C@@H]2CC[C@]2(C)[C@@H](OC(=O)N(CCCl)N=O)CC[C@@H]12  inactive
23                         O=C=Nc1ccc(Br)cc1  inactive
24                       COC(=O)C1=CCCN(C)C1  inactive
25        N#CC(N)c1ccccc1 (stereo not drawn)  inactive
26  CCN1C(=O)NC(=O)C(C)(N2C(=O)c3c(F)c(F)c(F)c(F)c3C2=O)C1=O (stereo not drawn)  inactive
27  COC(=O)[C@@H](C)C[C@H](Cc1ccccc1)NC(=O)c1cccc([C@@H](C[C@H](C(C)C)N(C)C(=O)[C@@H](NC(=O)[C@H]2CCCCN2C)C2CC2)OC(C)=O)n1    active
28  CC1=C2[C@H]3OC(=O)[C@@H](C)[C@@H]3CC[C@@]2(C)C=CC1=O  inactive
29             COC(=O)CCP(CCC(=O)OC)c1ccccc1  inactive
30                            COc1ccc(N)cc1N  inactive
31  CN1[C@@H](CC(=O)c2ccccc2)CCC[C@H]1CC(=O)c1ccccc1  inactive
32  C[C@@H]1C/C=C\C(=O)O[C@H](/C=C/C#C/C=C/C(C)(C)[C@@H](O)c2cccc(O)c2Br)[C@@H](C)/C=C/[C@H](C)C[C@H](OC(N)=O)C1    active
33       CN(C)c1ccc(C=C2C(=O)NC(=O)NC2=O)cc1  inactive
34  CC/C(Cc1ccccc1)=C(\c1ccc(OCCN2CCCC2)cc1)c1ccc(OC(=O)NCc2ccccc2)cc1  inactive
35   C#COc1cccc(Nc2ncnc3cc(NC(=O)CF)ccc23)c1  inactive
36                    O=C(Cc1ccccc1)c1ccccc1  inactive
37                     c1ccc2c(c1)sc1ccccc12  inactive
38  COC(=O)C1=CO[C@@H](C)[C@@H]2CN3CCc4c([nH]c5cc(OC)ccc45)[C@@H]3C[C@H]12  inactive
